This collection of values is drawn from paper PMC9704608.

assay: Cytotoxicity (MTT) against BJ cell line; type: cell-based, human; conditions: pure compounds; human fibroblast, 48 h; read-out: BJ cell line CC50 (μM± SD)
measure: CC50 at 48 h (µM)
Report as a plain number; the unit µM is understood.

C[C@]12C(=O)C=CCC1=CC[C@@H]1[C@@H]2CC[C@]2(O)C(=O)O[C@@]3(C)[C@H]4C[C@]5(C)[C@@H](CO[C@@]16O[C@@]32[C@H]5C6=O)C(=O)O4
10.8

Here's the next entry for you.
stdin: Can you look up the measured CC50 at 48 h of CC12CC3OC(=O)C1COC14OC5(C2C1=O)C(O)(CCC1C4CC2OC24CC=CC(=O)C14C)C(=O)OC35C (stereo not shown) for me?
stdout: 27.6
